Test system: Mus musculus
Experiment: Anticonvulsant activity against subcutaneous strychnine-induced seizure in Albino CF1 mouse at 300 mg/kg, ip after 4 hrs
Format: functional, organism-based
Set-up: dose 300 mg/kg
Active and inactive are the calls of the source. No cut-off for these calls is given here.
Your response should consist of one outcome taken from active, inactive

Here's what some known entries look like.
Compound: O=C(CCCN1C(=O)c2ccccc2C1=O)Nc1ccccc1C(F)(F)F
Label class: inactive

Compound: Cc1ccc(C)c(NC(=O)CCCN2C(=O)c3ccccc3C2=O)c1
Label class: active

Compound: CC/C(C)=N/NC(=O)CCCN1C(=O)c2ccccc2C1=O
Label class: inactive

Compound: C/C(=N/NC(=O)CCCN1C(=O)c2ccccc2C1=O)c1cccc(N)c1
Label class: inactive

Compound: O=C(CCCN1C(=O)c2ccccc2C1=O)N/N=C\c1ccccc1O
Label class: inactive

Kindly provide the recorded test outcome for the following compound: Cc1c(Cl)cccc1NC(=O)CCCN1C(=O)c2ccccc2C1=O
inactive

Query: recorded result category for C/C(=N/NC(=O)CCCN1C(=O)c2ccccc2C1=O)c1ccc(C)cc1 in this test
inactive

State the result this test recorded for CCC1(C)CC(=O)NC1=O (stereo unspecified) [ETHOSUXIMIDE] .
inactive

Entry Cc1cccc(C)c1NC(=O)CCCN1C(=O)c2ccccc2C1=O : call = ?
active

Write down the call the test reported for this compound. Item: C/C(=N/NC(=O)CCCN1C(=O)c2ccccc2C1=O)c1ccc(O)cc1
inactive

Please share the test call associated with C/C(=N/NC(=O)CCCN1C(=O)c2ccccc2C1=O)c1ccc([N+](=O)[O-])cc1 .
inactive

###

System: Mus musculus
Test: Anticonvulsant activity against intraperitoneal picrotoxin-induced seizure in Albino CF1 mouse at 300 mg/kg, ip after 4 hrs
Format: functional, organism-based
Design: dose 300 mg/kg
Activity calls are given as the source filed them. The rule behind the calls is not given here.
Observed property: Activity

Compound: C/C(=N/NC(=O)CCCN1C(=O)c2ccccc2C1=O)c1ccc(C)cc1
Result: inactive
//
Compound: C/C(=N/NC(=O)CCCN1C(=O)c2ccccc2C1=O)c1ccc(O)cc1
Result: inactive
//
Compound: O=C(CCCN1C(=O)c2ccccc2C1=O)N/N=C\c1cccc([N+](=O)[O-])c1
Result: inactive
//
Compound: Cc1ccc(NC(=O)CCCN2C(=O)c3ccccc3C2=O)c(C)c1
Result: inactive
//
Compound: Cc1ccc(C)c(NC(=O)CCCN2C(=O)c3ccccc3C2=O)c1
Result: inactive
//
Compound: O=C(CCCN1C(=O)c2ccccc2C1=O)N/N=C\c1ccccc1O
Result: inactive

List the reported Activity of each compound below.
1. Cc1cc(NC(=O)CCCN2C(=O)c3ccccc3C2=O)ccc1Br
2. O=C(CCCN1C(=O)c2ccccc2C1=O)Nc1ccc(Cl)cc1
3. O=C(CCCN1C(=O)c2ccccc2C1=O)Nc1ccccc1C(F)(F)F
4. COc1cc(/C=N\NC(=O)CCCN2C(=O)c3ccccc3C2=O)ccc1O
5. O=C1NC(=O)C(c2ccccc2)(c2ccccc2)N1 [PHENYTOIN]
6. O=C(CCCN1C(=O)c2ccccc2C1=O)Nc1ccccc1Br
7. O=C(CCCN1C(=O)c2ccccc2C1=O)NN=C(c1ccccc1)c1ccccc1
8. CC/C(C)=N/NC(=O)CCCN1C(=O)c2ccccc2C1=O

["Active", "inactive", "inactive", "inactive", "inactive", "Active", "inactive", "inactive"]
